test: Tmax in C57/BL6 mouse plasma at 30 mg/kg, po administered as single dose; format: ADME, organism-based
property measured: Tmax (min)
Note: unit min is implicit; provide only the numeric part.

Query block: Note Tmax for the molecule shown: "CC(C)Oc1ccccc1C(=O)Nc1ccccc1C(=O)Nc1cccc(S(=O)(=O)C(F)(F)F)c1"
Result block: 30

###

target: Relaxin receptor 1 (Homo sapiens); assay: Agonist activity at RXFP1 receptor in human THP1 cells assessed as stimulation of cAMP production incubated for 30 mins by HTRF assay
property measured: pEC50
Note: pEC50 values are expressed as the negative base-10 logarithm of concentration in M.

CCCOc1ccccc1C(=O)Nc1ccccc1C(=O)Nc1cccc(S(=O)(=O)C(F)(F)F)c1 :: 6.98
CCOc1ccccc1C(=O)Nc1ccccc1C(=O)Nc1cccc(S(=O)(=O)C(F)(F)F)c1 :: 6.44
CCCCOc1ccccc1C(=O)Nc1ccccc1C(=O)Nc1cccc(S(=O)(=O)C(F)(F)F)c1 :: 6.91
O=C(Nc1cccc(S(=O)(=O)C(F)(F)F)c1)c1ccccc1NC(=O)c1ccccc1OCC(F)(F)F :: 6.97
COc1ccccc1C(=O)Nc1ccccc1C(=O)Nc1cccc(S(=O)(=O)C(F)(F)F)c1 :: 6.45
CCOc1ccccc1C(=O)Nc1ccccc1C(=O)Nc1cccc(C(F)(F)F)c1 :: 6.33

Okay, now this compound:
Query block: Param request: pEC50 | system Relaxin receptor 1 (Homo sapiens) | item "COc1ccccc1C(=O)Nc1ccccc1C(=O)Nc1cccc(SC(F)(F)F)c1"
Result block: 6.28

###

molecular target: Relaxin receptor 1 (Homo sapiens) (UniProt Q9HBX9); assay: Agonist activity at RXFP1 receptor (unknown origin) expressed in HEK293 cells assessed as stimulation of cAMP production incubated for 30 mins by TR-FRET based HTRF assay relative to forskolin; type: functional, cell-based
Active and inactive are the calls of the source. The rule behind the calls is not given here.
property measured: %max

Illustrative cases are given below, each with its answer.
CCOc1ccccc1C(=O)Nc1ccncc1C(=O)Nc1cccc(S(=O)(=O)C(F)(F)F)c1 :: 97%
O=C(Nc1cccc(C(F)(F)F)c1)c1ccccc1NC(=O)c1ccccc1OCCN1CCCCC1 :: 99%
Cc1ccccc1NC(=O)c1ccccc1NC(=O)C1CCCCC1 :: inactive
COc1ccccc1C(=O)Nc1ccccc1C(=O)Nc1cccc(SC(F)(F)F)c1 :: 99%
CCOc1ccccc1C(=O)Nc1cccc2c1C(=O)N(c1cccc(S(=O)(=O)C(F)(F)F)c1)C2 :: inactive
COc1ccccc1C(=O)Nc1ccccc1C(=O)Nc1cccc(S(C)(=O)=O)c1 :: 95%
COc1ccccc1C(=O)N(C)c1ccccc1C(=O)N(C)c1cccc(C(F)(F)F)c1 :: inactive
COc1ccccc1Nc1ccccc1C(=O)Nc1cccc(C(F)(F)F)c1 :: 77%
CCOc1ccccc1C(=O)Nc1ccccc1C(=O)Nc1ccccn1 :: 74%
COc1ccccc1C(=O)Nc1ccc(C(=O)Nc2cccc(C(F)(F)F)c2)cc1 :: inactive

Query block: Please look at this compound and report its %max: "CCCCC(=O)Nc1ccccc1C(=O)Nc1cccc(C(F)(F)F)c1"
Result block: 94%

Query block: State its %max for this compound: "CCOc1ccccc1C(=O)Nc1ccccc1C(=O)Nc1cncc(I)c1"
Result block: 72%

Query block: Write down %max measured for item "CC(C)(C)OC(=O)N1CCN(CCOc2ccccc2C(=O)Nc2cccc(C(F)(F)F)c2)CC1"
Result block: inactive

Query block: Check the records and state %max for "O=C(Nc1ccccc1C(=O)Nc1cccc(C(F)(F)F)c1)c1cccc([N+](=O)[O-])c1"
Result block: 84%

Query block: Return the recorded %max value; entry: "O=C(Nc1cccc(C(F)(F)F)c1)c1ccccc1OCCN1CCCCC1"
Result block: inactive

Query block: Please list %max recorded for the compound "CCOc1ccccc1C(=O)Nc1ccccc1C(=O)Nc1cccc(I)c1"
Result block: 96%

Query block: Give the measured %max for "CN(C)CCCOc1ccccc1C(=O)Nc1ccccc1C(=O)Nc1cccc(C(F)(F)F)c1"
Result block: 66%

Query block: Specify %max for "O=C(Nc1cccc(C(F)(F)F)c1)c1ccccc1NCc1cccc(C(F)(F)F)c1" and stop.
Result block: 71%

Query block: Kindly indicate its recorded %max. Item: "O=C(Nc1ccccc1C(=O)Nc1cccc(C(F)(F)F)c1)c1cc(C(F)(F)F)cc(C(F)(F)F)c1"
Result block: 94%

Query block: Give recorded %max. "O=C(Nc1cccc(C(F)(F)F)c1)c1ccccc1NC(=O)C1CCCCCC1"
Result block: 75%

###

molecular target: Relaxin receptor 2 (Homo sapiens); test: Agonist activity at RXFP2 receptor (unknown origin) expressed in HEK293 cells assessed as stimulation of cAMP production incubated for 30 mins by HTRF assay relative to control; assay type: functional, cell-based
Sequence (Q8WXD0 whole entry): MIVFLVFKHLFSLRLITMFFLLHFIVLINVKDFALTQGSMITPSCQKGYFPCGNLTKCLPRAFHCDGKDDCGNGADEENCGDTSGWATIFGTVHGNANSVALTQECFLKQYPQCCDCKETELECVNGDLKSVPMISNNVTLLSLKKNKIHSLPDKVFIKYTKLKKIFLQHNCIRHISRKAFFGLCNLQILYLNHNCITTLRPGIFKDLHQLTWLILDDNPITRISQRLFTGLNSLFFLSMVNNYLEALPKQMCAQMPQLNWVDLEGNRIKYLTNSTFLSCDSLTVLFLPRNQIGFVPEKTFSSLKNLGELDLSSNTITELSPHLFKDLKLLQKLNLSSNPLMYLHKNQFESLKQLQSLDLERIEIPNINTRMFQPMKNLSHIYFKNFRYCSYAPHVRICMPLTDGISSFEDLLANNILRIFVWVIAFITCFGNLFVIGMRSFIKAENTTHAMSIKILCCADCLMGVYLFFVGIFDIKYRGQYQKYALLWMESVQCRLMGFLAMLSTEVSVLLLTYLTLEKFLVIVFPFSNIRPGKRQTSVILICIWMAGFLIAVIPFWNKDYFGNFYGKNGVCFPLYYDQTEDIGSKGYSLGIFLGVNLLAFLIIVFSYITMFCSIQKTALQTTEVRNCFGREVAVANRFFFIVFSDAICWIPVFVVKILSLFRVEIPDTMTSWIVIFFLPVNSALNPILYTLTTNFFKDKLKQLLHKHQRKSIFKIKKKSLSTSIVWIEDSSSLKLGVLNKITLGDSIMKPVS
property measured: %max

Guide cases for %max, answers given:
O=C(Nc1ccccc1C(=O)Nc1cccc(C(F)(F)F)c1)c1ccncc1 :: < 30%
O=C(Nc1cccc(C(F)(F)F)c1)c1ccccc1NC(=O)c1cccc2nc[nH]c12 :: < 30%

Query block: Please give measured %max of the following entry: "O=C(Nc1ccccc1C(=O)Nc1cccc(C(F)(F)F)c1)c1cccnc1"
Result block: < 30%

###

target: Relaxin receptor 1 (Homo sapiens, UniProt Q9HBX9); experiment: Agonist activity at RXFP1 receptor (unknown origin) expressed in HEK293 cells assessed as stimulation of cAMP production incubated for 30 mins by TR-FRET based HTRF assay; assay type: functional, cell-based; conditions: read-out: AC50
Category | rule: reported AC50 within range, see lower level (below 2 µM), middle level (2 µM to below 6 µM), upper level (6 µM or more)

# count of solved cases: 5
Cc1cccc(C(=O)Nc2ccccc2C(=O)Nc2cccc(C(F)(F)F)c2)c1 :: middle level
CCOc1ccccc1C(=O)Nc1ccccc1C(=O)Nc1ccncc1 :: upper level
O=C(Nc1ccccc1C(=O)Nc1cccc(C(F)(F)F)c1)c1ccc2c(c1)OCO2 :: upper level
O=C(Nc1cccc(S(=O)(=O)C(F)(F)F)c1)c1ccccc1NC(=O)C1CCCCC1 :: lower level
COc1ccccc1C(=O)Nc1ccccc1C(=O)Nc1cccc(C(F)(F)F)c1 :: lower level

Query block: # bin label for "CCSc1ccccc1C(=O)Nc1ccccc1C(=O)Nc1cccc(S(=O)(=O)C(F)(F)F)c1"
Result block: lower level

Query block: Which class is correct for the following compound? "N#Cc1cccc(C(=O)Nc2ccccc2C(=O)Nc2cccc(C(F)(F)F)c2)c1"
Result block: middle level

Query block: For this compound, which bin applies? "CCOc1ccccc1C(=O)Nc1ccccc1C(=O)Nc1cccc(SC(F)(F)F)c1"
Result block: lower level

###

Target: Relaxin receptor 1 (Homo sapiens)
Sequence (Q9HBX9 whole entry): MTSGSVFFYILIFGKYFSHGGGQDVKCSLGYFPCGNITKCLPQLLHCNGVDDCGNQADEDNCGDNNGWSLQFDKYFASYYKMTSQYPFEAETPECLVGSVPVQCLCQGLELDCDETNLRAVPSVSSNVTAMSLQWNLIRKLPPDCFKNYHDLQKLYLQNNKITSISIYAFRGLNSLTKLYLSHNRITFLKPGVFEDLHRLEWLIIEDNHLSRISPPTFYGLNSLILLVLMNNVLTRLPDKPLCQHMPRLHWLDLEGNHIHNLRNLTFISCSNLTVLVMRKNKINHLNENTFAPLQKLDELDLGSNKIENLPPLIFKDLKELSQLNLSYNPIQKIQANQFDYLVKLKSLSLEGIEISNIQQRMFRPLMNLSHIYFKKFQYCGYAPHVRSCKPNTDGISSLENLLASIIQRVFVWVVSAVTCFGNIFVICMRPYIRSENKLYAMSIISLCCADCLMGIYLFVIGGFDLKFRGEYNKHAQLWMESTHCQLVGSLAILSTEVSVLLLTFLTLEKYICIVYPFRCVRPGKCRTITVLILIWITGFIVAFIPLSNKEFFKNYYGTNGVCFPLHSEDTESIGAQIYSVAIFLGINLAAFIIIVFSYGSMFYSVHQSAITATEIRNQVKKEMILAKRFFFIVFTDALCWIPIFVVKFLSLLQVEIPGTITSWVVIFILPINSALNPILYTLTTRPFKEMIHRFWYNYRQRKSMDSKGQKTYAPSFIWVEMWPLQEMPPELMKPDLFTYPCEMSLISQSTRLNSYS
Assay: Agonist activity at RXFP1 receptor (unknown origin) expressed in HEK293 cells assessed as stimulation of cAMP production incubated for 30 mins by TR-FRET based HTRF assay
Format: functional, cell-based
Conditions: read-out: AC50
// reported log10 AC50 for each item listed
Log10 applied to AC50; unit prior to transform: µM.

Query block: Report log10 AC50 for CC1CCC(C(=O)Nc2ccccc2C(=O)Nc2cccc(C(F)(F)F)c2)CC1 (stereo not drawn)
Result block: 0.37

Query block: Tell me measured log10 AC50 for "O=C(Nc1cccc(C(F)(F)F)c1)c1ccccc1Nc1cccc(C(F)(F)F)c1" please.
Result block: 0.62

Query block: Supply measured log10 AC50 of "O=C(Nc1ccc(Br)cc1)c1ccccc1NC(=O)C1CCCCC1" in your reply.
Result block: 2.07

Query block: Indicate the recorded log10 AC50 value for this compound: "O=C(Nc1cccc(C(F)(F)F)c1)c1ccccc1NC(=O)C1CC1"
Result block: 0.92

Recorded values, source ChEMBL document CHEMBL3714716.
